Cited source for all entries: patent US11439707B2

Quick reference for molar extinction coefficient among some molecules
Test: absorption spectrum (maximum absorption wavelength, molar extinction coefficient)
Format: physicochemical

molecule	molar extinction coefficient
COCCOCCOCCOCCOCCOCCOC(=O)CCCNc1c2c3c4c(c(OC)c(=O)c5c(O)cc(OC)c(c6c(OC)cc(NCCCC(=O)OCCOCCOCCOCCOCCOCCOC)c(c1=O)c63)c54)C(C(C)=O)C(C)=C2 (centres unmarked)	32,500 M^−1cm^−1
COc1c(NCCOCCO)c2c(=O)cc(OC)c3c4c(OC)cc(=O)c5c(O)c(NCCOCCO)c6c(c(c1CC(C)=C6)c23)c54	27,000 M^−1cm^−1
COc1c2c3c4c(c(NCC5CCC(C(=O)NCCCC[P+](c6ccccc6)(c6ccccc6)c6ccccc6)CC5)c(=O)c5c(O)cc(OC)c(c6c(OC)cc(NCC7CCC(C(=O)NCCCC[P+](c8ccccc8)(c8ccccc8)c8ccccc8)CC7)c(c1=O)c63)c54)C=C(C)C2 (centres unmarked) [HC-13d-NH—C4-PPh3+]	31,500 M^−1cm^−1
COc1c(O)c2c(=O)cc(OC)c3c4c(OC)cc(=O)c5c(NCS(=O)(=O)O)c(NCCCS(=O)(=O)O)c6c(c(c1CC(C)=C6)c23)c54 [HC-45a]	21,000 M^−1cm^−1
COc1c2c3c4c(c(NCC[N+]56CC[N+](C)(CC5)CC6)c(=O)c5c(NCC[N+]67CC[N+](C)(CC6)CC7)cc(OC)c(c6c(OC)cc(O)c(c1=O)c63)c54)C=C(C)C2C(C)=O (centres unmarked) [HB-41c]	33,500 M^−1cm^−1

====

Assay: absorption spectrum (maximum absorption wavelength, molar extinction coefficient)
Format: physicochemical
maximum absorption wavelength listing for selected molecules.

molecule	maximum absorption wavelength (nm)
COCCOCCOCCOCCOCCOCCOCCC(=O)OCCOCCNc1c(O)c2c(=O)cc(OC)c3c4c(OC)cc(=O)c5c(NCCOCCOC(=O)CCOCCOCCOCCOCCOCCOCCOC)c(OC)c6c(c(c1C=C(C)C6)c23)c54 [HC-1b-PEG6]	624
COc1c(NCc2cccc[n+]2C)c2c(=O)cc(OC)c3c4c(OC)cc(=O)c5c(O)c(NCc6cccc[n+]6C)c6c(c(c1C(C(C)=O)C(C)=C6)c23)c54 (stereo not drawn) [HB-38b-N^+]	620
COc1c2c3c4c(c(NCCO)c(=O)c5c(O)cc(OC)c(c6c(OC)cc(NCCO)c(c1=O)c63)c54)C=C(C)C2 [HC-2d]	625
COc1c2c3c4c(c(NCCCS(=O)(=O)O)c(=O)c5c(O)cc(OC)c(c6c(OC)cc(NCS(=O)(=O)O)c(c1=O)c63)c54)C=C(C)C2 [HC-45d]	624
COc1c(O)c2c(=O)cc(OC)c3c4c(OC)cc(=O)c5c(NC6CCCC6C(=O)O)c(NC6CCCC6C(=O)O)c6c(c(c1C(C(C)=O)C(C)=C6)c23)c54 (stereo not drawn) [HB-21a]	620
CCNc1c2c3c4c(c(OC)c(=O)c5c(O)cc(OC)c(c6c(OC)cc(NC7CCCC7)c(c1=O)c63)c54)C(C(C)=O)C(C)=C2 (stereo not drawn) [HB-44c]	624
COC(=O)C(CO)Nc1c(O)c2c(=O)cc(OC)c3c4c(OC)cc(=O)c5c(NC(CO)C(=O)OC)c(OC)c6c(c(c1C=C(C)C6C(C)=O)c23)c54 (stereo not drawn) [HB-24b]	621
COCCOCCOCCOCCOCCOCCOC(=O)C1CCCCC1Nc1c2c3c4c(c(OC)c(=O)c5c(NC6CCCCC6C(=O)OCCOCCOCCOCCOCCOCCOC)cc(OC)c(c6c(OC)cc(O)c(c1=O)c63)c54)C(C(C)=O)C(C)=C2 (stereo not drawn) [HB-16d-PEG6]	628
COc1c(O)c2c(=O)cc(OC)c3c4c(OC)cc(=O)c5c(NCCS(=O)(=O)O)c(NCCS(=O)(=O)O)c6c(c(c1C(C(C)=O)C(C)=C6)c23)c54 (stereo not drawn) [HB-11a-C2-SO3H]	620
COCCOCCOCCOCCOCCOCCOCCOCCOCCNC(=O)C1CCC(CNc2c3c4c5c(c(OC)c(=O)c6c(O)cc(OC)c(c7c(OC)cc(NCC8CCC(C(=O)NCCOCCOCCOCCOCCOCCOCCOCCOCCOC)CC8)c(c2=O)c74)c65)C(C(C)=O)C(C)=C3)CC1 (stereo not drawn) [HB-13c-NH-PEG8]	630
COc1c(NCCCCS(=O)(=O)O)c2c(=O)cc(OC)c3c4c(OC)cc(=O)c5c(O)c(NCCCCS(=O)(=O)O)c6c(c(c1C(C(C)=O)C(C)=C6)c23)c54 (stereo not drawn) [HB-11b-C4-SO3H]	620
COc1c2c3c4c(c(NC(CC(=O)O)C(=O)O)c(=O)c5c(O)cc(OC)c(c6c(OC)cc(NC(CC(=O)O)C(=O)O)c(c1=O)c63)c54)C=C(C)C2C(C)=O (stereo not drawn) [HB-27d]	620
COCCOCCC(=O)OCCOCCNc1c(NCCCC(=O)O)c2c(=O)cc(OC)c3c4c(OC)cc(=O)c5c(O)c(OC)c6c(c(c1C=C(C)C6C(C)=O)c23)c54 (stereo not drawn) [HB-48a-PEG1]	628
COc1c2c3c4c(c(NCCCC(=O)OCCCCCC[N+](C)(C)C)c(=O)c5c(NCCCC(=O)OCCCCCC[N+](C)(C)C)cc(OC)c(c6c(OC)cc(O)c(c1=O)c63)c54)C=C(C)C2 [HC-8c-C6-N^+]	632
CCNc1c2c3c4c(c(OC)c(=O)c5c(O)cc(OC)c(c6c(OC)c(SCCO)c(NC7CCCC7)c(c1=O)c36)c54)C(C(C)=O)C(C)=C2 (stereo not drawn) [HB-S-44c]	628
COc1c2c3c4c(c(NCCCC(=O)NCCCC[N+](C)(C)C)c(=O)c5c(O)cc(OC)c(c6c(OC)cc(NCCCC(=O)NCCCC[N+](C)(C)C)c(c1=O)c63)c54)C=C(C)C2 [HC-8d-NH—C4-N^+]	624
COc1c2c3c4c(c(NC5(CO)CC5)c(=O)c5c(NC6(CO)CC6)cc(OC)c(c6c(OC)cc(O)c(c1=O)c63)c54)C=C(C)C2C(C)=O (stereo not drawn) [HB-35c]	619
COc1c2c3c4c(c(NCCC(=O)O)c(=O)c5c(NCCC(=O)O)cc(OC)c(c6c(OC)cc(O)c(c1=O)c63)c54)C=C(C)C2C(C)=O (stereo not drawn) [HB-10c]	622
CCNNc1c2c3c4c(c(OC)c(=O)c5c(NNCC)cc(OC)c(c6c(OC)cc(O)c(c1=O)c63)c54)C(C(C)=O)C(C)=C2 (stereo not drawn) [HB-36d]	621
COCCOCCOCCOCCOCCOCCOC(=O)CCCCCNc1c2c3c4c(c(OC)c(=O)c5c(O)cc(OC)c(c6c(OC)cc(NCCCCCC(=O)OCCOCCOCCOCCOCCOCCOC)c(c1=O)c63)c54)CC(C)=C2 [HC-9c-PEG6]	628
COc1c(NCC[N+]23CC[N+](C)(CC2)CC3)c2c(=O)cc(OC)c3c4c(OC)cc(=O)c5c(O)c(NCC[N+]67CC[N+](C)(CC6)CC7)c6c(c(c1C(C(C)=O)C(C)=C6)c23)c54 (stereo not drawn) [HB-41b]	624

====

Assay: absorption spectrum (maximum absorption wavelength, molar extinction coefficient)
Type: physicochemical
This section presents compounds with their documented maximum absorption wavelength values.
measurement label: maximum absorption wavelength (nm)

compound	measurement label	endpoint result
COCCOCCOCCOCCOCCOCCOC(=O)CCCNc1c(O)c2c(=O)cc(OC)c3c4c(OC)cc(=O)c5c(NCCCC(=O)OCCOCCOCCOCCOCCOCCOC)c(OC)c6c(c(c1C=C(C)C6C(C)=O)c23)c54 (stereo not shown)	maximum absorption wavelength	622
COc1c2c3c4c(c(NCCO)c(=O)c5c(NCCO)cc(OC)c(c6c(OC)cc(O)c(c1=O)c63)c54)C=C(C)C2	maximum absorption wavelength	636
COc1c2c3c4c(c(NO)c(=O)c5c(O)cc(OC)c(c6c(OC)cc(NO)c(c1=O)c63)c54)C=C(C)C2 [HC-37d]	maximum absorption wavelength	620
COCCOCCOCCOCCOCCOCCOCCC(=O)OC1CCC(Nc2c3c4c5c(c(OC)c(=O)c6c(NC7CCC(OC(=O)CCOCCOCCOCCOCCOCCOCCOC)C7)cc(OC)c(c7c(OC)cc(O)c(c2=O)c74)c65)C(C(C)=O)C(C)=C3)C1 (stereo not shown) [HB-20d-PEG6]	maximum absorption wavelength	630
COc1c(O)c2c(=O)cc(OC)c3c4c(OC)cc(=O)c5c(NCCCC(=O)O)c(NCC(=O)O)c6c(c(c1C(C(C)=O)C(C)=C6)c23)c54 (stereo not shown) [HB-43a]	maximum absorption wavelength	613
COc1c(O)c2c(=O)cc(OC)c3c4c(OC)cc(=O)c5c(NC(C(=O)O)C(C)C)c(NC(C(=O)O)C(C)C)c6c(c(c1C(C(C)=O)C(C)=C6)c23)c54 (stereo not shown) [HB-22a]	maximum absorption wavelength	621
COCCOCCOCCOCCOCCOCCOCCOCCOCCOCCOCCOCCOC(=O)C1CCC(Nc2c3c4c5c(c(OC)c(=O)c6c(O)cc(OC)c(c7c(OC)cc(NC8CCC(C(=O)OCCOCCOCCOCCOCCOCCOCCOCCOCCOCCOCCOCCOC)C8)c(c2=O)c74)c65)C(C(C)=O)C(C)=C3)C1 (stereo not shown) [HB-19c-PEG12]	maximum absorption wavelength	636
COc1c2c3c4c(c(NCCNCCOCCO)c(=O)c5c(O)c(Br)c(OC)c(c6c(OC)cc(NCCNCCOCCO)c(c1=O)c63)c54)C=C(C)C2C(C)=O (stereo not shown)	maximum absorption wavelength	624
COCCOCCOCCOCCOCCOCCOCCC(=O)OCC1(Nc2c(O)c3c(=O)cc(OC)c4c5c(OC)cc(=O)c6c(NC7(COC(=O)CCOCCOCCOCCOCCOCCOCCOC)CC7)c(OC)c7c(c(c2C=C(C)C7C(C)=O)c34)c65)CC1 (stereo not shown) [HB-35b-PEG6]	maximum absorption wavelength	624
COc1c(NC(C(=O)O)C(C)C)c2c(=O)cc(OC)c3c4c(OC)cc(=O)c5c(O)c(NC(C(=O)O)C(C)C)c6c(c(c1C(C(C)=O)C(C)=C6)c23)c54 (stereo not shown) [HB-22b]	maximum absorption wavelength	618
